B1: HDV Ribozyme (parent)
chain: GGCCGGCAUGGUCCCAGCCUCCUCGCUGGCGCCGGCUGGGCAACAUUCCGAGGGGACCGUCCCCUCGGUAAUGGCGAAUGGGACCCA

- Variants of: B1
- EXPERIMENT_SUMMARY: self-cleavage, relative activity (ratio to wild type); higher = more cleavage; co-transcriptional
Recorded self-cleavage determines the group label, using low end (below 0.2), middle (0.2 to below 0.5), high end (0.5 or more)

Look over these answered cases.
1) GGCCGGCAUGGUCCCAGCCUCCUCGCUGGCGCCGGCGGGGCAACAUUCCGAGGGGACCAUCCCCUCGGUAAUGGCGAAUGGGACCCA    low end
2) GGCCGGCAUGGUCCCAGCCUCCUCGCUGGCGCGGGCUGGGCAACAUUCCGAGGGGACCGUCCCCUGGGUAAUGGCGAAUGGGACCCA    low end
3) GGCCGGCAUGGUCCCAGCCUCCUCGCUGGCGCCGGCUGGGCAACGUUCCGAGGGGACCGUCCCCUCGGAAAUGGCGAAUGGGACCCA    high end
4) GGCCGGCAUGGUCCCAGCCCCCUCGCUGGCGCCGGCUGGGCAACAUUCCGAGGGGACCGUCCCCUCGGUAAUGGCGAAUAGGACCCA    low end
5) GCCCGGUAUGGUCCCAGCCUCCUCGCUGGCGCCGGCUGGGCAACAUUCCGAGGGGACCGUCCCCUCGGUAAUGGCGAAUGGGACCCA    low end
6) GGCCGGCAUGGUCCCAGCCUCCUCGCUGGCUCCGGCUGGGCAACAUUCCGAGGGGACCGUCCCCUCGGUAAUGGCCAAUGGGACCCA    middle
7) GGCCGGCCUGGUCCCAGCCUCCUCGCUGGCGCCGGCUGGGCAACAUUCCGAGGUGACCGUCCCCUCGGUAAUGGCGAAUGGGACCCA    high end
8) GGCCGGCAUGGUCCCAGCCUCCUCGCUGGCGCCGGCUGGGCAACAUUCCGAGGGGACCGUCCCCGCGGUAAUGGCAAAUGGGACCCA    high end

*Q* Which self-cleavage band matches `GGCCGGCAUGGUCCCAGCCUCCUCGCUGGCGCCUGCUGGGCAACACUCCGAGGGGACCGUCCCCUCGGUAAUGGCGAAUGGGACCCA` ?
*A* low end

*Q* Class label required: `GGCCGACAUGGUCCCAGCCUCCUCGCUGGCGCCGGCUGGGCAACAUUCCGAGGGGACCGUCCCCUCGGUAAGGGCGAAUGGGACCCA`
*A* middle

*Q* Could you place `UGCCGGCAUGGUCCCAGCCUCCUCGCUGGCGCCGGCUGGGCAACAUUCCGAGGGGAUCGUCCCCUCGGUAAUGGCGAAUGGGACCCA` in its proper category? Many thanks.
*A* middle

The measurements presented in this section are drawn from the RNAGym collection of RNA variant scans (doi:10.7554/elife.80360).
